All figures here come from paper PMC6154466.

Known melting point of a selection of compounds

These recorded examples may help you get a feel for the data.
compound="Cc1ccc(S(=O)(=O)NC2C(NC(=S)Nc3ccc(S(N)(=O)=O)cc3)OC(CO)C(O)C2O)cc1 (centres unmarked) [Compound 7a]" measurement_kind="melting point" data_value="159.5 to 161.2 °C"
compound="CC(=O)NC1C(NC(=S)Nc2ccc(S(N)(=O)=O)cc2)OC(COC(C)=O)C(OC(C)=O)C1OC(C)=O (centres unmarked) [Compound 9a]" measurement_kind="melting point" data_value="141.8 to 142.9 °C"
compound="NS(=O)(=O)c1ccc(NC(=S)N[C@@H]2O[C@H](CO)[C@@H](O)[C@H](O)[C@H]2NS(=O)(=O)c2ccc(F)cc2)cc1 [Compound 7d]" measurement_kind="melting point" data_value="178 to 179.6 °C"
compound="COc1ccc(S(=O)(=O)N[C@@H]2[C@@H](O)[C@H](O)[C@@H](CO)O[C@H]2NC(=S)Nc2ccc(S(N)(=O)=O)cc2)cc1 [Compound 7c]" measurement_kind="melting point" data_value="165 to 166.3 °C"
compound="NS(=O)(=O)c1ccc(NC(=S)N[C@@H]2O[C@H](CO)[C@@H](O)[C@H](O)[C@H]2NS(=O)(=O)c2cccs2)cc1 [Compound 7r]" measurement_kind="melting point" data_value="172.8 to 174 °C"
compound="NS(=O)(=O)c1ccc(NC(=S)NC2OC(CO)C(O)C(O)C2NS(=O)(=O)c2ccc(C(F)(F)F)cc2)cc1 (centres unmarked) [Compound 7f]" measurement_kind="melting point" data_value="164 to 165.4 °C"
compound="Cc1ccccc1S(=O)(=O)N[C@@H]1[C@@H](O)[C@H](O)[C@@H](CO)O[C@H]1NC(=S)Nc1ccc(S(N)(=O)=O)cc1 [Compound 7b]" measurement_kind="melting point" data_value="175.2 to 177.1 °C"

Now look at this entry.
IN: Quick check: melting point of NS(=O)(=O)c1ccc(NC(=S)N[C@@H]2O[C@H](CO)[C@@H](O)[C@H](O)[C@H]2NS(=O)(=O)c2ccc(Cl)cc2)cc1 [Compound 7g] ?
OUT: 167.2 to 168.8 °C
